# target of assay: hTREM2 (Homo sapiens, UniProt Q9NZC2)
# Sequence (Q9NZC2 19-230): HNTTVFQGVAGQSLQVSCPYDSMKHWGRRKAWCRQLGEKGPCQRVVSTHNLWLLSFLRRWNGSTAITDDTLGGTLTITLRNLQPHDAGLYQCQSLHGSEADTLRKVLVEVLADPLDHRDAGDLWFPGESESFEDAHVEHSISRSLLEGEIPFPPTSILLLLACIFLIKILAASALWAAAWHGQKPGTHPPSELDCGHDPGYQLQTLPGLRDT
# Sequence (O43914 22-113 partner): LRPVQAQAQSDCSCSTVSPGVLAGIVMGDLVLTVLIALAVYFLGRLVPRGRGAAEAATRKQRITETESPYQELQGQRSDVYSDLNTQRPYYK
# assay explanation: TREM2 activity by cellular Syk phosphorylation (AlphaScreen/AlphaLISA) in TREM2/DAP12-HEK cells, used for Examples 1-305
# Assay type: cell-based
# Set-up: expressed in transfected cells
# measurement setup: HEK293 Cells
measurement label: EC50

Use the examples below as a reference point.
Cc1cc2c(-c3ccc(F)cc3F)nc([C@@H]3CCO[C@H](c4cnn(C)c4)C3)nc2nc1C (single isomer, unassigned) [Example 200]; 0.5 to 3 µM
CC(C)N1Cc2c(cc(N3CCO[C@@H](c4cnn(C)c4)C3)nc2-c2ccc(Cl)cc2F)C1=O [Example 122]; 0.5 to 3 µM
Cc1nc2nc(N3CCO[C@@H](c4cnn(C)c4)C3)nc(N3CC(F)C3)c2nc1C [Example 29]; 3 to 100 µM

Attention now shifts to the item below.
# query: EC50 of entry Cc1nc2nc(N3CCO[C@@H](c4cnn(C)c4)C3)nc(-c3ccc(C(F)(F)F)cc3F)c2nc1C [Example 17]
≤ 0.05 µM

====

This listing pairs molecules with measured EC50.
# target of assay: hTREM2 (Homo sapiens, UniProt Q9NZC2)
# assay explanation: TREM2 activity by cellular Syk phosphorylation (AlphaScreen/AlphaLISA) in TREM2/DAP12-HEK cells, used for Examples 1-305
# Type: cell-based
# Parameters: expressed in transfected cells
# measurement setup: HEK293 Cells

Recorded EC50, per entry:
Cc1cnc2c(-c3ccc(Cl)cc3F)nc([C@H]3CCO[C@@H](c4cnn(C5CC5)c4)C3)nc2n1 (single isomer, unassigned); ≤ 50 nM
Cc1ccc(-c2nc([C@H]3CCO[C@@H](c4cnn(C)c4)C3)nc3nc(C)c(C)nc23)c(F)c1 (single isomer, unassigned); ≤ 50 nM

Consider the molecule shown here: `Cc1ccc2c(n1)nc(N1CCO[C@@H](c3cnn(C4CC4)c3)C1)nc2[C@H]1C[C@H](C(F)(F)F)C1` What is its recorded EC50?
50 to 500 nM

====

# target of assay: hTREM2 (Homo sapiens)
# assay explanation: TREM2 activity by cellular Syk phosphorylation (AlphaScreen/AlphaLISA) in TREM2/DAP12-HEK cells, used for Examples 1-305
# Format: cell-based
# Parameters: expressed in transfected cells
# measurement setup: HEK293 Cells
measurement label: hTREM2 Emax

Example compounds with recorded hTREM2 Emax:
Cc1ccc(-c2cc([C@H]3CCO[C@H](c4cnn(C)c4)C3)nc3nc(C)c(C)nc23)c(F)c1; ++++ (Emax>250)
Cc1cnc2c(C34CC(C(F)(F)F)(C3)C4)nc(N3CCO[C@@H](c4cnn(C5CC5)c4)C3)nc2n1; +++ (Emax>150 and ≤250)
Cc1nc2nc(N3CCO[C@@H](c4cnn(C)c4)C3)cc(-c3ccc(Cl)cc3F)c2nc1C; ++++ (Emax>250)
Cc1ccc(-c2nc([C@@H]3CCO[C@@H](c4cnn(C)c4)C3)nc3nc(C)c(C)cc23)c(F)c1; ++++ (Emax>250)
Cc1nc2cc([C@H]3CCO[C@@H](c4cnn(C)c4)C3)nc(-c3ccc(Cl)cc3F)c2nc1C (single isomer, unassigned); ++++ (Emax>250)
Cc1cc([C@H]2CN(c3nc(C45CC(C(F)(F)F)(C4)C5)c4nc(C)c(C)nc4n3)CCO2)ccn1; +++ (Emax>150 and ≤250)

For the compound shown here, `Cc1cc([C@H]2CN(c3cc(-c4ccc(Cl)cc4F)c4nc(C)c(C)nc4c3)CCO2)ccn1` , give the reported hTREM2 Emax.
++++ (Emax>250)

Which hTREM2 Emax reading was recorded for the compound Cc1nc2nc([C@@H]3CCO[C@H](c4cnn(C5CC5)c4)C3)nc(-c3ccc(Cl)cc3F)c2nc1C (single isomer, unassigned) ?
+++ (Emax>150 and ≤250)

Which hTREM2 Emax value belongs to `Cc1nc2nc(N3CCO[C@@H](c4cnn(C5CC5)c4)C3)nc(C3CC4(C3)CC(F)(F)C4)c2nc1C` ?
++ (Emax>100 and ≤150)

I'd like to know its hTREM2 Emax. The compound in question is `Cc1cc2c(-c3ccc(F)cc3F)nc(N3CCO[C@@H](c4cnn(C5CC5)c4)C3)nc2nc1C`
+++ (Emax>150 and ≤250)

Form field: reported hTREM2 Emax of `Cc1ccc(-c2nc(N3CCO[C@@H](c4ccnc(C)c4)C3)nc3nc(C)c(C)nc23)c(F)c1`
+++ (Emax>150 and ≤250)

May I ask what hTREM2 Emax has been recorded for `Cc1cc2c(-c3ccc(F)cc3F)nc([C@@H]3CCO[C@@H](c4cnn(C)c4)C3)nc2nc1C` ?
++ (Emax>100 and ≤150)

I'd like to know its hTREM2 Emax. The compound in question is `Cc1nc2nc(N3CCO[C@@H](c4cnn(C)c4)C3)nc(C3CC(F)(F)C3)c2nc1C`
++ (Emax>100 and ≤150)

Form field: reported hTREM2 Emax of Cc1cc([C@@H]2CN(c3nc(-c4ccc(Cl)cc4F)c4cc(C)c(C)nc4n3)CCO2)cnn1 (single isomer, unassigned)
++++ (Emax>250)
